molecular target: Recombinant KLK2 (Homo sapiens); construct: made in house; host or cells: baculovirus-insect cell line system; assay: Hydrolysis of FRET peptides by recombinant KLK2 (kinetic parameters); assay type: biochemical; conditions: pH 8.0, 20 mM Tris–HCl, 1 M sodium citrate, 37 °C, KLK2 1.6 nM; three enzymatic reactions, standard errors 5% or less
Sequence (P20151 25-261): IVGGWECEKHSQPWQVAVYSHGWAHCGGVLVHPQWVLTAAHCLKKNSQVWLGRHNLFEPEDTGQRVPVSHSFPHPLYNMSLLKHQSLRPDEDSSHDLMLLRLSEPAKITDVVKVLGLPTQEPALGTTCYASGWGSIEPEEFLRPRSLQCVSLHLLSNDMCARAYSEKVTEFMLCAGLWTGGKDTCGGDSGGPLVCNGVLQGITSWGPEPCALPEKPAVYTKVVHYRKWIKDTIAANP
Non-standard residues stand in square brackets, D forms with d. No end group written: not given here. *: point of attachment. EDDnp = O=[N+]([O-])c1ccc(NCCN*)c([N+](=O)[O-])c1; 2Abz = Nc1ccccc1C(=O)O
Listing of recorded Km by entry.

>  <substance>
Abz-KXRSSKQ-EDDnp, X = N: FRET peptide, S2 series, X = N (Abz-KNRSSKQ-EDDnp)

>  <Km>
10.1 µM

$$$$
>  <substance>
Abz-KLRSXKQ-EDDnp, X = V: FRET peptide, S2’ series, X = V ([2Abz]KLRSVKQ-EDDnp)

>  <Km>
4.2 µM

$$$$
>  <substance>
Abz-XLRSSKQ-EDDnp, X = E: FRET peptide, S3 series, X = E (Abz-ELRSSKQ-EDDnp)

>  <Km>
7.6 µM

$$$$
>  <substance>
Abz-KLRSXKQ-EDDnp, X = L: FRET peptide, S2’ series, X = L ([2Abz]KLRSLKQ-EDDnp)

>  <Km>
2.8 µM

$$$$
>  <substance>
Abz-KLRXSKQ-EDDnp, X = I: FRET peptide, S1’ series, X = I ([2Abz]KLRISKQ-EDDnp)

>  <Km>
1.8 µM

$$$$
>  <substance>
Abz-KLRXSKQ-EDDnp, X = H: FRET peptide, S1’ series, X = H (N-terminal Abz, C-terminal EDDnp; X = H)

>  <Km>
4.3 µM

$$$$

Tested system Recombinant KLK2 (Homo sapiens); Km recorded for Abz-KLRSXKQ-EDDnp, X = I: FRET peptide, S2’ series, X = I ([2Abz]KLRSIKQ-EDDnp) was 2.8 µM

Hey, just so you know, these numbers are from paper PMC11339918.
